Form field: Emax (one value per entry).
- Measured on: human alpha 7-wt nAChR (Homo sapiens, UniProt P36544)
- Construct: expressed in transfected cells
- Sequence (P36544 23-502): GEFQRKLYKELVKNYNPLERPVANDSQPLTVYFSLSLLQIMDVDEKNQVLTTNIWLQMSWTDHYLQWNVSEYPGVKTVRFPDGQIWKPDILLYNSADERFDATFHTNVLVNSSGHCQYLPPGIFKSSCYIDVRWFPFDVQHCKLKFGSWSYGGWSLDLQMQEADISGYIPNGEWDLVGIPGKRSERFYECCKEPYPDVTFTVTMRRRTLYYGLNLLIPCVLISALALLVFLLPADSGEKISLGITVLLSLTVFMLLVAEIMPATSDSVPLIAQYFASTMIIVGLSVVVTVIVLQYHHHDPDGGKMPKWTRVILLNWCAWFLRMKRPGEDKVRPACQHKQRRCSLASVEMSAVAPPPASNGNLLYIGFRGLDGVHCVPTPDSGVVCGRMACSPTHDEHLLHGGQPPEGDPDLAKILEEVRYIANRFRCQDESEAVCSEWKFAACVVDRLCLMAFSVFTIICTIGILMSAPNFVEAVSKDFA
- Assay text: Ca2+ flux imaging (FDSS) (protocol B)
- Type: cell-based
- Condition notes: read-out: % Efficacy
The reply should be a number in %, with the unit left off.

Reference set, count: 6
Compound	Obs value
Cc1cc(-c2ccc(N3CCOCC3)cc2CNC(=O)CC2CC2)cc(C)n1	466
Cc1cc(-c2ccc(N3C[C@@H](C)O[C@@H](C)C3)cc2CNC(=O)c2ccc(F)cc2C)ccn1	912
Cc1cc(-c2c(F)cc(N3C[C@@H](C)O[C@@H](C)C3)cc2CNC(=O)CC2CC2)cc(C)n1	508
Cc1cc(-c2c(F)cc(N3CCOC(C)C3)cc2CNC(=O)C(C)C)cc(C)n1 (centres unmarked)	284
Cc1cc(-c2ccc(N3CCOCC3)cc2CNC(=O)c2cc(C)on2)cc(C)n1	654
Cc1cc(-c2c(F)cc(N3CCO[C@H](C(F)(F)F)C3)cc2CNC(=O)C2CC2)cc(C)n1	258

Tell me the measured Emax of Cc1cc(-c2ccc(N3CC4CCC(C3)O4)cc2CNC(=O)C(C)C)cc(C)n1 , please.
296

Tell me the measured Emax of Cc1cc(-c2c(F)cc(N3CCO[C@@H](C(F)(F)F)C3)cc2CNC(=O)c2conc2C)cc(C)n1 , please.
796

====

- Measured on: human alpha 7-wt nAChR (Homo sapiens)
- Construct: expressed in transfected cells
- Assay text: Ca2+ flux imaging (FDSS) (protocol B)
- Format: cell-based
- Condition notes: Ca2+ assay as described in D.1; read-out: pEC50 (converted)
Observation type: EC50 (nM)
The reply should be a number in nM, with the unit left off.

Reference set, count: 3
Compound	Value unit	EC50
Cc1cc(-c2ccc(N3C[C@@H](C)O[C@@H](C)C3)cc2CNC(=O)c2ccc(F)cc2C)cc(C)n1 [Compound 5]	nM	9.33
Cc1cc(-c2c(F)cc(N3CCCC(C(F)(F)F)C3)cc2CNC(=O)c2cc(C)on2)cc(C)n1 (stereo not shown) [Compound 94]	nM	195
Cc1cc(-c2ccc(N3C[C@@H](C)O[C@@H](C)C3)cc2CNC(=O)C2CC2)ccn1 [Compound 14]	nM	589

For the next question, use this compound.
Tell me the measured EC50 of Cc1nocc1C(=O)NCc1cc(N2C[C@@H](C)O[C@@H](C)C2)ccc1-c1ccncc1 [Compound 17] , please.
1660

====

- Measured on: human alpha 7-wt nAChR (Homo sapiens, UniProt P36544)
- Construct: expressed in transfected cells
- Assay text: Ca2+ flux imaging (FDSS) (protocol B)
- Format: cell-based
- Condition notes: read-out: % Efficacy
Form field: Emax (one value per entry).
Write down the value, and be sure its unit follows.

Reference set, count: 4
Molecule	Measured on	Emax
Cc1cc(-c2ccc(N3C[C@H](C(F)(F)F)C[C@H](C(F)(F)F)C3)cc2CNC(=O)c2cc(C)on2)cc(C)n1 [Compound 21]	human alpha 7-wt nAChR (Homo sapiens, UniProt P36544)	541%
Cc1cc(-c2ccc(N3CCOCC3)cc2CNC(=O)c2conc2C)ccn1 [Compound 143]	human alpha 7-wt nAChR (Homo sapiens, UniProt P36544)	130%
Cc1cc(-c2c(F)cc(N3CCO[C@H](C(F)(F)F)C3)cc2CNC(=O)c2conc2C)cc(C)n1 [Compound 106]	human alpha 7-wt nAChR (Homo sapiens, UniProt P36544)	159%
Cc1cc(-c2c(F)cc(N3CCCC(C(F)(F)F)C3)cc2CNC(=O)c2cc(C)on2)cc(C)n1 (centres unmarked) [Compound 94]	human alpha 7-wt nAChR (Homo sapiens, UniProt P36544)	428%

Tell me the measured Emax of Cc1cc(-c2c(F)cc(N3CCO[C@H](C(F)(F)F)C3)cc2CNC(=O)c2cc(C)on2)cc(C)n1 [Compound 111] , please.
550%

Tell me the measured Emax of Cc1cc(-c2ccc(N3CCOCC3)cc2CNC(=O)c2ccc(F)cc2C)ccn1 [Compound 31] , please.
576%

Tell me the measured Emax of Cc1cc(-c2c(F)cc(N3C[C@@H](C)O[C@@H](C)C3)cc2CNC(=O)C(C)C)cc(C)n1 [Compound 78] , please.
707%

Tell me the measured Emax of Cc1cc(-c2ccc(N3CCOCC3)cc2CNC(=O)C(C)C)cc(C)n1 [Compound 29] , please.
256%
